These entries and their values trace back to patent US20250154169A1.

- Test system: MYB mRNA
- testDescription: Splicing RT-qPCR assay, MYB canonical (CJ) and alternative (AJ) junction mRNA
- Assay type: cell-based, human
- conditionParameters: Homo sapiens, 24 h, A673 or K562 cells, 24 hours compound treatment, RT-qPCR; read-out: MYB CJ (IC50, decrease in canonical junction mRNA)
pIC50: −log10 of the molar value. Structures can show the parent of a compound that is named as a salt.
observationType: pIC50

Examples with answers:
molecule: CCn1cc2c(N3CCNC(CO)C3)ccc(C(=O)Nc3cc(F)c4nc(C)cn4c3)c2n1 (stereo not shown)
measurementTarget: MYB mRNA
pIC50: 6.00 to 7.00
--
molecule: COc1nc(NC(=O)c2ccc(N3CCNCC3)c3cn(C)nc23)cc2oc(C)nc12
measurementTarget: MYB mRNA
pIC50: > 7.00
--
molecule: Cc1cn2cc(NC(=O)c3ccc(N4CCNCC4)c4cn(C5CCOCC5)nc34)cc(F)c2n1 [Compound 304, trifluoroacetic acid salt]
measurementTarget: MYB mRNA
pIC50: 6.00 to 7.00

Task: Can you look up the measured pIC50 of "CCn1cc2c(N3CCC(NC4CCC4)CC3)ccc(C(=O)Nc3cc(F)c4nc(C)cn4c3)c2n1" for me?
Output: > 7.00

---

Task for the reader: assign each of the following molecules its reported AC50.
- Test system: MYB mRNA
- testDescription: Splicing RT-qPCR assay, MYB canonical (CJ) and alternative (AJ) junction mRNA
- Assay type: cell-based, human
- conditionParameters: Homo sapiens, 24 h, A673 or K562 cells, 24 hours compound treatment, RT-qPCR; read-out: MYB AJ (AC50, increase in alternative junction mRNA)

Examples with answers:
molecule: Cc1cn2cc(NC(=O)c3ccc(N4CCC(NC(C)(C)C)CC4)c4cn(C)nc34)cc(F)c2n1
measurementTarget: MYB mRNA
AC50: 1 to 10 µM
--
molecule: Cc1cn2cc(NC(=O)c3ccc(N4CCC5(CCN5)C4)c4cn(C)nc34)cc(F)c2n1 (stereo not drawn)
measurementTarget: MYB mRNA
AC50: 0.1 to 1 µM

Working through the 8 molecules below one at a time, give AC50 for each.
1. Cc1cn2cc(NC(=O)c3ccc(C4CCNCC4)c4cc(C)oc34)cc(F)c2n1
2. CCN(CC)C1(C)CCN(c2ccc(C(=O)Nc3cc(F)c4nc(C)cn4c3)c3nn(CC)cc23)CC1
3. CN[C@@H]1CCN(c2ccc(C(=O)Nc3cn4cc(C)nc4c(N4CCOCC4)n3)c3nn(C)cc23)C1
4. Cc1cn2cc(NC(=O)c3ccc(N4CCNCC4)c4cn(CC#N)nc34)cc(F)c2n1
5. Cc1cn2cc(NC(=O)c3ccc(N4CCC(NC5CC5)C4)c4cn(C)nc34)cc(F)c2n1 (stereo not drawn)
6. CCn1cc2c(N3CC[C@@H](NC)C3)cc(OC)c(C(=O)Nc3cc(F)c4nc(C)cn4c3)c2n1
7. Cc1cn2cc(NC(=O)c3ccc(N4CC(C)(C)NC(C)(C)C4)c4cn(C)nc34)cc(F)c2n1
8. Cc1cn2cc(NC(=O)c3ccc(N4CC[C@@H](NC5CC5)C4)c4cn(C)nc34)cc(F)c2n1

Output:
0.1 to 1 µM
0.1 to 1 µM
> 10 µM
< 0.1 µM
< 0.1 µM
> 10 µM
0.1 to 1 µM
< 0.1 µM
